MEASURED_ON: human dopamine D1 receptor (Homo sapiens)
Construct: A 1.4 Kb Hind III to Xho I fragment was subcloned into the vector pMMLV; expressed in transfected cells; host or cells: CHO cells, clone CHO-D1M#9 (plasmid pHD1MMLV), membranes
TEST_NAME: [3H]-SCH-23390 binding to cloned human dopamine D1 receptors (CHO cell membranes)
SETUP_CONDITIONS: competitive binding, [3H]-SCH-23390, cloned human D1 in CHO membranes; read-out: D1 affinity Ki
Protocol: [^3H]-SCH-23390 Binding to Cloned Human Dopamine D1 Receptors Determination of relative binding affinity of potential neuropsychiatric and other agents for the human dopamine D1 receptor. The human D, cDNA was obtained from the laboratory of Dr. Marc Caron in the vector pCMV5. […] • 1. […] After the transfer to suspension culture, growth is monitored and cell viability is assessed using trypan blue exclusion. Total and viable cell count on 5 sectors of the hemocytometer are recorded. […]
Where a name gives a salt, the structure may show the parent alone.
QUANTITY: log10(Ki) (log10 of the value in nM)
Values reflect log10 of reported Ki (nM).

Q: Query log10(Ki) on human dopamine D1 receptor (Homo sapiens) for Cc1ccc2c(c1O)C[C@@H](C1CCN(Cc3cccc(C(F)(F)F)c3F)CC1)O[C@H]2CN [Example 80, dihydrochloride]
A: 1.69

Q: Query log10(Ki) on human dopamine D1 receptor (Homo sapiens) for Cc1ccc2c(c1O)C[C@@H](C1CCN(C(=O)OC(C)C)CC1)O[C@H]2CN [Example 111, hydrochloride]
A: 2.22

Q: Query log10(Ki) on human dopamine D1 receptor (Homo sapiens) for Cc1ccc2c(c1O)C[C@@H](C1CCN(CC(C)C)CC1)O[C@H]2CN [Example 40, dihydrochloride]
A: 2.56

Q: Query log10(Ki) on human dopamine D1 receptor (Homo sapiens) for Cc1ccc2c(c1O)C[C@@H](C1CCN(Cc3cccs3)CC1)O[C@H]2CN [Example 47, dihydrochloride]
A: 1.82

Q: Query log10(Ki) on human dopamine D1 receptor (Homo sapiens) for Cc1ccc2c(c1O)C[C@@H](C1CCN(Cc3sc4ccccc4c3C)CC1)O[C@H]2CN [Example 86, dihydrochloride]
A: 1.60

Q: Query log10(Ki) on human dopamine D1 receptor (Homo sapiens) for CCCNC[C@@H]1O[C@H](C2CCN(Cc3ccccc3)CC2)Cc2c1ccc(C)c2O
A: 2.71

Q: Query log10(Ki) on human dopamine D1 receptor (Homo sapiens) for Cc1ccc2c(c1O)C[C@@H](C1CCN(Cc3cc4ccccc4n3C)CC1)O[C@H]2CN [Example 88, dihydrochloride]
A: 1.82

Q: Query log10(Ki) on human dopamine D1 receptor (Homo sapiens) for CCS(=O)(=O)N1CCC([C@@H]2Cc3c(ccc(C)c3O)[C@H](CN)O2)CC1 [Example 153, hydrochloride]
A: 2.40

Q: Query log10(Ki) on human dopamine D1 receptor (Homo sapiens) for Cc1ccc2c(c1O)C[C@@H](C1CCN(Cc3ccncc3)CC1)O[C@H]2CN [Example 54, dihydrochloride]
A: 2.18

Q: Query log10(Ki) on human dopamine D1 receptor (Homo sapiens) for Cc1ccc2c(c1O)C[C@@H](C1CCN(Cc3cc(C(F)(F)F)cc(C(F)(F)F)c3)CC1)O[C@H]2CN [Example 75, dihydrochloride]
A: 1.62

Q: Query log10(Ki) on human dopamine D1 receptor (Homo sapiens) for Cc1ccc2c(c1O)C[C@@H](C1CCN(S(=O)(=O)N3CCCCC3)CC1)O[C@H]2CN [Example 165, hydrochloride]
A: 2.36

Q: Query log10(Ki) on human dopamine D1 receptor (Homo sapiens) for Cc1ccc2c(c1O)C[C@@H](C1CCN(CCC(C)NC(=O)c3ccc([N+](=O)[O-])cc3)CC1)O[C@H]2CN (stereo partly shown) [Example 24, dihydrochloride]
A: 2.38

Q: Query log10(Ki) on human dopamine D1 receptor (Homo sapiens) for Cc1ccc2c(c1O)C[C@@H](C1CCN(CC3CC3)CC1)O[C@H]2CN [Example 38, dihydrochloride]
A: 1.72

----------
MEASURED_ON: human dopamine D2Long (D2L) receptors (Homo sapiens, UniProt P14416)
Sequence (P14416 whole entry): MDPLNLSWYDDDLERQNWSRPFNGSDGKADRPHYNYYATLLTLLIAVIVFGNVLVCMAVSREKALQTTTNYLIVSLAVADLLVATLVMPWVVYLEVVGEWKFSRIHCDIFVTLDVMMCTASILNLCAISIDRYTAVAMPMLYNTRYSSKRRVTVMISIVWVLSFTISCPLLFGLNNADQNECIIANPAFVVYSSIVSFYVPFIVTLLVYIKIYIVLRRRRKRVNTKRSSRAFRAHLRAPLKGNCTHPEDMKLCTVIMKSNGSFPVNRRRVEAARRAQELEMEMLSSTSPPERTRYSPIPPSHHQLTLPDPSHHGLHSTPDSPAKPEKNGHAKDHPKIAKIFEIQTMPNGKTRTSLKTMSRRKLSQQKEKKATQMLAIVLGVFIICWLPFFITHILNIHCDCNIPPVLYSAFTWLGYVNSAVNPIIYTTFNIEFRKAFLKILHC
Counter-ions that a name gives are not always drawn.
Give measured pKi for each item. Keep answers brief.
A value of pKi is the negative decimal logarithm of a concentration given in moles per litre.

Q: Which pKi value belongs to Cc1ccc2c(c1O)C[C@@H](C1CCN(C(=O)Oc3ccc4ccccc4c3)CC1)O[C@H]2CN [Example 123, hydrochloride] ?
A: 6.81

Q: Which pKi value belongs to Cc1ccc2c(c1O)C[C@@H](C1CCN(S(=O)(=O)c3ccccc3C(F)(F)F)CC1)O[C@H]2CN [Example 143, hydrochloride] ?
A: 6.11

----------
For human dopamine D2Long (D2L) receptors (Homo sapiens, UniProt P14416), measured pKi is reported for the entries below.
pKi: −log10 of the molar value. Structures can show the parent of a compound that is named as a salt.

Q: Which pKi value belongs to Cc1ccc2c(c1O)C[C@@H](C1CCN(C(=O)Oc3ccccc3)CC1)O[C@H]2CN [Example 113, hydrochloride] ?
A: ≤ 4.00

Q: Which pKi value belongs to CCCCS(=O)(=O)N1CCC([C@@H]2Cc3c(ccc(C)c3O)[C@H](CN)O2)CC1 [Example 154, hydrochloride] ?
A: ≤ 4.00

Q: Which pKi value belongs to Cc1ccc2c(c1O)C[C@@H](C1CCN(CC3CCCCC3)CC1)O[C@H]2CN [Example 34, dihydrochloride] ?
A: ≤ 5.00

Q: Which pKi value belongs to Cc1ccc2c(c1O)C[C@@H](C1CCN(Cc3cccc4ccccc34)CC1)O[C@H]2CN [Example 39, dihydrochloride] ?
A: ≤ 5.00

Q: Which pKi value belongs to Cc1ccc2c(c1O)C[C@@H](C1CCN(C(=O)Oc3ccccc3Cl)CC1)O[C@H]2CN [Example 116, hydrochloride] ?
A: ≤ 4.00

----------
For human dopamine D2Long (D2L) receptors (Homo sapiens), measured pKi is reported for the entries below.
pKi: −log10 of the molar value. Counter-ions that a name gives are not always drawn.

Q: Which pKi value belongs to CCS(=O)(=O)N1CCC([C@@H]2Cc3c(ccc(C)c3O)[C@H](CN)O2)CC1 [Example 153, hydrochloride] ?
A: ≤ 4.00

Q: Which pKi value belongs to Cc1ccc2c(c1O)C[C@@H](C1CCN(S(=O)(=O)c3ccc(Cl)c(Cl)c3)CC1)O[C@H]2CN [Example 150, hydrochloride] ?
A: ≤ 4.00

Q: Which pKi value belongs to Cc1ccc2c(c1O)C[C@@H](C1CCN(Cc3ccc(F)cc3)CC1)O[C@H]2CN [Example 26, dihydrobromide] ?
A: ≤ 5.00

Q: Which pKi value belongs to Cc1ccc2c(c1O)C[C@@H](C1CCN(S(=O)(=O)c3ccc(Cl)cc3)CC1)O[C@H]2CN [Example 148, hydrochloride] ?
A: ≤ 4.00

Q: Which pKi value belongs to CCC(NC(=O)c1ccc(C)cc1)C(C)CN1CCC([C@@H]2Cc3c(ccc(C)c3O)[C@H](CN)O2)CC1 (some centres unmarked) [Example 14, dihydrochloride] ?
A: ≤ 4.00

Q: Which pKi value belongs to Cc1ccc2c(c1O)C[C@@H](C1CCN(C(=O)N3CCCC3)CC1)O[C@H]2CN [Example 135, hydrochloride] ?
A: ≤ 4.00

Q: Which pKi value belongs to Cc1ccc2c(c1O)C[C@@H](C1CCN(CCc3cccc(Cl)c3)CC1)O[C@H]2CN [Example 107, dihydrobromide] ?
A: ≤ 5.00

Q: Which pKi value belongs to Cc1ccc2c(c1O)C[C@@H](C1CCN(S(=O)(=O)c3ccc(-c4ccccc4)cc3)CC1)O[C@H]2CN [Example 152, hydrochloride] ?
A: ≤ 4.00

----------
MEASURED_ON: human dopamine D1 receptor (Homo sapiens, UniProt P21728)
Construct: A 1.4 Kb Hind III to Xho I fragment was subcloned into the vector pMMLV; expressed in transfected cells; host or cells: CHO cells, clone CHO-D1M#9 (plasmid pHD1MMLV), membranes
Sequence (P21728 whole entry, the tested form may be a part): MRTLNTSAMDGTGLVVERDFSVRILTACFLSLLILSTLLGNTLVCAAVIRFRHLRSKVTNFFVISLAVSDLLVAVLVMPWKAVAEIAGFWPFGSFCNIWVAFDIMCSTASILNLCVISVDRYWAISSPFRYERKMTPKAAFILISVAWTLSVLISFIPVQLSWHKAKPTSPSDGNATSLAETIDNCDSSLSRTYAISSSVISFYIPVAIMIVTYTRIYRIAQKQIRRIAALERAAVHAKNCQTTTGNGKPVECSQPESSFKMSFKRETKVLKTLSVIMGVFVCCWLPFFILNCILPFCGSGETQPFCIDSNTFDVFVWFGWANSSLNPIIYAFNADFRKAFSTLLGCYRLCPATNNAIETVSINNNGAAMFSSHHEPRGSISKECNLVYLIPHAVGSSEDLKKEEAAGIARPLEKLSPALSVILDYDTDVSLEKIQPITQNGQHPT
TEST_NAME: [3H]-SCH-23390 binding to cloned human dopamine D1 receptors (CHO cell membranes)
SETUP_CONDITIONS: competitive binding, [3H]-SCH-23390, cloned human D1 in CHO membranes; read-out: D1 affinity Ki
Structures can show the parent of a compound that is named as a salt.
QUANTITY: Ki (µM)
Give the value, in units of µM, as a plain number.

Q: Which Ki value belongs to CCNC[C@@H]1O[C@H](C2CCN(Cc3ccc(C(F)(F)F)cc3)CC2)Cc2c1ccc(C)c2O [Example 182] ?
A: 0.255

Q: Which Ki value belongs to Cc1ccc2c(c1O)C[C@@H](C1CCN(Cc3cccc(C(F)(F)F)c3)CC1)O[C@H]2CN [Example 73, dihydrochloride] ?
A: 0.0635

Q: Which Ki value belongs to Cc1ccc2c(c1O)C[C@@H](C1CCN(C(=O)Nc3ccccc3O)CC1)O[C@H]2CN [Example 127, hydrochloride] ?
A: 0.105

Q: Which Ki value belongs to Cc1ccc2c(c1O)C[C@@H](C1CCN(C(=O)N3CCCCC3)CC1)O[C@H]2CN [Example 138, hydrochloride] ?
A: 0.198

Q: Which Ki value belongs to Cc1ccc2c(c1O)C[C@@H](C1CCN(S(=O)(=O)N3CCc4ccccc4C3)CC1)O[C@H]2CN [Example 167, hydrochloride] ?
A: 0.074

Q: Which Ki value belongs to Cc1ccc2c(c1O)C[C@@H](C1CCN(Cc3ccc(C(F)(F)F)cc3F)CC1)O[C@H]2CN [Example 70, dihydrochloride] ?
A: 0.0194
